Molecular target: cyno PRLR on Baf3-cyPRLR cells (cyno)
Experiment: cell-based or functional assay

>  <binder>
chAb12 (antibody, human IgG1, kappa, V domains shown) VH: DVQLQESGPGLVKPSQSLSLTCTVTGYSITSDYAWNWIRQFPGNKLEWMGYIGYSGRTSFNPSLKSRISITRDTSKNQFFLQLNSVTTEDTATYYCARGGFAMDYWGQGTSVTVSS VL: QIVLTQSPGIMSASPGEKVTMTCSASSSVTYMYWYQQKPRSSPKPWIYLTSNLASGVPARFSGSGSGTSYSLTISSMEAEDGATYYCQQWSSTPPLTFGGGTKLELNT

>  <rel>
>

>  <Baf3-cyPRLR proliferation IC50 [µg/mL]>
10

$$$$
>  <binder>
Ab39 (antibody, human IgG1, kappa, V domains shown, humanized from Ab7; G1; also called Ab4 HC.1a and Ab4 LC.1a) VH: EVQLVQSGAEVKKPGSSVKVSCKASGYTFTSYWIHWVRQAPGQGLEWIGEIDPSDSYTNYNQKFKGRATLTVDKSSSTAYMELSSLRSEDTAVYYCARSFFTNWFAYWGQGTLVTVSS VL: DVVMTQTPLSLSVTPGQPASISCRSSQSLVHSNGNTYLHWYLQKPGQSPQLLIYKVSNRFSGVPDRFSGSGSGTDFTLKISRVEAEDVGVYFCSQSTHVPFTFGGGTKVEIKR

>  <rel>
=

>  <Baf3-cyPRLR proliferation IC50 [µg/mL]>
0.25

$$$$
>  <binder>
Ab20 (antibody, human IgG1, kappa, V domains shown, humanized from Ab6; G1; also called Ab1 HC.1a and Ab1 LC.2) VH: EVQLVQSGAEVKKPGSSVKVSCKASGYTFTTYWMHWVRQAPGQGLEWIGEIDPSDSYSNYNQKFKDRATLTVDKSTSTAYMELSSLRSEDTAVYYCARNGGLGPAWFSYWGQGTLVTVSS VL: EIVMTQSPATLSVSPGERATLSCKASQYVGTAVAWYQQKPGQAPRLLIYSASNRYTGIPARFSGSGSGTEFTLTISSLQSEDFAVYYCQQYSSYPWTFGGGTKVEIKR

>  <rel>
=

>  <Baf3-cyPRLR proliferation IC50 [µg/mL]>
0.5

$$$$
